Where do these numbers come from? They come from patent US20250019432A1.

Molecular target: T1, S9ecto-Fc (human siglec9 ectodomain fused with human Fc domain) (human, UniProt Q9Y336 18-348)
T1 construct: extracellular domain; bought from R&D Systems; not shown: human Fc domain
T1 sequence (Q9Y336 18-348): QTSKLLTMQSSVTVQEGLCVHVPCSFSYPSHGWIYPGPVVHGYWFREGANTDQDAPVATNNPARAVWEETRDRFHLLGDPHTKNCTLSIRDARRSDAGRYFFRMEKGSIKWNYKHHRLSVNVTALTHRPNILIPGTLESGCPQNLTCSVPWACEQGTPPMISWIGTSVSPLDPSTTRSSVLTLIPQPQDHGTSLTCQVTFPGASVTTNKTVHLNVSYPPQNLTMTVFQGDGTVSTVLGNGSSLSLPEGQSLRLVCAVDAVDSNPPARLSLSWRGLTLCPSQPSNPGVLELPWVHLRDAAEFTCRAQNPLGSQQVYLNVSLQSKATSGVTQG
Assay: ELISA
ASSAY ENDPOINT: A450
// return a plain number; no unit text

Exercise: Data request, read-out A450, for S0057 (antibody, V domains shown, human variable domains with mouse constant regions (Trianni mouse hybridoma); also called S0057 whole antibody) VH: QGQLVQSGAEVKKPGASVKVSCKASGYTFNNYGISWVRQAPGQGLEWMGWISAYNGFTRSTQKFQGRVTLTTDTSTSTAHMELRSLRSDDTAAYYCARDGGDGFDPWGQGTLVTVSS VL: EIVLTQSPATLSLSPGERATLSCRASQSVSSFLAWYQQKPGQAPRLLIFDASNRATGIPARFSGSGSGTDFTLTISSLEPEDFAVYYCQQRSNWITFGQGTRLEIKRA
Key: 0.08
